- System: Liver microsomes
- Test protocol: Metabolic stability in human liver microsomes assessed as clearance measured per mg of protein
- Assay type: ADME, Microsome
Stability under 40 µL/min gets yes, anything at or over 40 µL/min gets no.

Field: example entries. Status: answers known.
Query :: Determine if Cc1nnc(C(C)C)n1C1CCN(C(C)C[C@H](NC(=O)C2CCC2)c2ccccc2)CC1 (stereo partly specified) shows Stability strictly lower than 40 µL/min.
Result :: yes

Query :: Determine if CC(C)c1noc(C2CCN(C(C)C[C@H](NC(=O)C3CCC3)c3ccccc3)CC2)n1 (stereo partly specified) shows Stability strictly lower than 40 µL/min.
Result :: no

Query :: Determine if Cc1nnc(C2CCN(C(C)C[C@H](NC(=O)C3CCC3)c3ccccc3)CC2)o1 (stereo partly specified) shows Stability strictly lower than 40 µL/min.
Result :: yes

Query :: Determine if Cc1nnc(C(C)C)n1C1CCN(CC[C@H](NC(=O)C2CCC(F)(F)CC2)c2ccccc2)CC1 shows Stability strictly lower than 40 µL/min.
Result :: yes

Query :: Determine if Cc1noc(C2CCN(C(C)C[C@H](NC(=O)C3CCC3)c3ccccc3)CC2)n1 (stereo partly specified) shows Stability strictly lower than 40 µL/min.
Result :: no

Query :: Determine if Cc1nnc(C)n1C1CCN(C(C)C[C@H](NC(=O)C2CCC2)c2ccccc2)CC1 (stereo partly specified) shows Stability strictly lower than 40 µL/min.
Result :: yes

Query :: Determine if CC(C[C@H](NC(=O)C1CCC1)c1ccccc1)N1CCC(n2cc(-c3ccccc3)[nH]c2=O)CC1 (stereo partly specified) shows Stability strictly lower than 40 µL/min.
Result :: yes

Query :: Determine if CCN(C(=O)Cc1ccc(OC)cc1)[C@H]1C[C@H]2CC[C@@H](C1)N2CC[C@H](NC(=O)C1CCC1)c1ccccc1 shows Stability strictly lower than 40 µL/min.
Result :: no

New cases:
Query :: Determine if Cc1nnc(C(C)C)n1[C@H]1C[C@H]2CC[C@@H](C1)N2CC[C@H](NC(=O)C1CCC(F)(F)CC1)c1ccccc1 [MARAVIROC] shows Stability strictly lower than 40 µL/min.
Result :: yes

Query :: Determine if CC(C[C@H](NC(=O)C1CCC1)c1ccccc1)N1CCC(c2[nH]ncc2-c2ccncc2)CC1 (stereo partly specified) shows Stability strictly lower than 40 µL/min.
Result :: yes

Query :: Determine if CC(C[C@H](NC(=O)C1CCC1)c1ccccc1)N1CCC(c2nnc(CN(C)C)o2)CC1 (stereo partly specified) shows Stability strictly lower than 40 µL/min.
Result :: yes

* * *

- Test protocol: physchem
- Description: Dissociation constant, pKa of the compound
Answer each item with its documented pKa.

// input: 3 molecules below; output: pKa for each
1. CCN(C(=O)Cc1ccc(OC)cc1)[C@H]1C[C@H]2CC[C@@H](C1)N2CC[C@H](NC(=O)C1CCC1)c1ccccc1
2. Cc1nnc(C(C)C)n1C1CCN(CC[C@H](NC(=O)C2CCC(F)(F)CC2)c2ccccc2)CC1
3. Cc1nnc(C(C)C)n1[C@H]1C[C@H]2CC[C@@H](C1)N2CC[C@H](NC(=O)C1CCC(F)(F)CC1)c1ccccc1

Result ::
[8.7, 7.2, 7.7]

* * *

- Test protocol: physchem
- Condition context: buffer, pH 7.4
logD under 2 gets 1, anything at or over 2 gets -1.

Field: example entries. Status: answers known.
Query :: Determine if CC(C)c1noc(C2CCN(C(C)C[C@H](NC(=O)C3CCC3)c3ccccc3)CC2)n1 (stereo partly specified) shows logD strictly lower than 2.
Result :: -1

Query :: Determine if Cc1nnc(C(C)C)n1C1CCN(CC[C@H](NC(=O)C2CCC(F)(F)CC2)c2ccccc2)CC1 shows logD strictly lower than 2.
Result :: 1

Query :: Determine if CC(C[C@H](NC(=O)C1CCC1)c1ccccc1)N1CCC(n2cc(-c3ccccc3)[nH]c2=O)CC1 (stereo partly specified) shows logD strictly lower than 2.
Result :: -1

Query :: Determine if Cc1nnc(C)n1C1CCN(C(C)C[C@H](NC(=O)C2CCC2)c2ccccc2)CC1 (stereo partly specified) shows logD strictly lower than 2.
Result :: 1

New cases:
Query :: Determine if CC(C[C@H](NC(=O)C1CCC1)c1ccccc1)N1CCC(c2nnc(CN(C)C)o2)CC1 (stereo partly specified) shows logD strictly lower than 2.
Result :: 1

Query :: Determine if CCN(C(=O)Cc1ccc(OC)cc1)[C@H]1C[C@H]2CC[C@@H](C1)N2CC[C@H](NC(=O)C1CCC1)c1ccccc1 shows logD strictly lower than 2.
Result :: -1

Query :: Determine if Cc1noc(C2CCN(C(C)C[C@H](NC(=O)C3CCC3)c3ccccc3)CC2)n1 (stereo partly specified) shows logD strictly lower than 2.
Result :: -1

Query :: Determine if CC(C[C@H](NC(=O)C1CCC1)c1ccccc1)N1CCC(c2[nH]ncc2-c2ccncc2)CC1 (stereo partly specified) shows logD strictly lower than 2.
Result :: -1

Query :: Determine if Cc1nnc(C2CCN(C(C)C[C@H](NC(=O)C3CCC3)c3ccccc3)CC2)o1 (stereo partly specified) shows logD strictly lower than 2.
Result :: 1

Query :: Determine if Cc1nnc(C(C)C)n1C1CCN(C(C)C[C@H](NC(=O)C2CCC2)c2ccccc2)CC1 (stereo partly specified) shows logD strictly lower than 2.
Result :: 1
